- test_method_notes: MELAS cybrid and Rieske KO viability enhancers – cell-based, MELAS cybrids, Rieske KO mouse fibroblasts, CellTiter-Glo, primary screen (AID 1508586); further: test concentration not given here
- condition_description: MELAS cybrid survival, low glucose, CellTiter-Glo 48 h
Activity calls are given as the source filed them.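 How the source made its calls: active means mean z-score across replicates of 1.96 or higher in either the MELAS or the Rieske mutant cell line; inactive means the rest.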
# output must be one of active, inactive

CC(C)CC(NC(=O)C(CCc1ccccc1)NC(=O)CN1CCOCC1)C(=O)NC(Cc1ccccc1)C(=O)NC(CC(C)C)C(=O)[C@@]1(C)CO1 (some centres undefined) = inactive
CC(=O)c1cccc(-c2cc3c(n(CC=C(C)C)c2=O)CCN(Cc2cnc(N(C)C)s2)C3)c1 = inactive
COc1cccc2c1C(=O)c1c(O)c3c(c(O)c1C2=O)C[C@@](O)(C(=O)CO)C[C@@H]3OC1CC(N)C(OC2CCCCO2)C(C)O1 (some centres undefined) = active

Next, consider the following molecule.
Field: outcome | Entry: CC(NC(=O)C(O)c1cc(F)cc(F)c1)C(=O)NC1C(=O)N(C)c2ccccc2-c2ccccc21 (centres undefined) inactive
